molecular target: Histamine H3 receptor (Homo sapiens); assay: Antagonist activity at human recombinant histamine H3 receptor expressed in CHO cells assessed as inhibition of histamine-induced GTP-gammaS binding
Sequence (Q9Y5N1 whole entry): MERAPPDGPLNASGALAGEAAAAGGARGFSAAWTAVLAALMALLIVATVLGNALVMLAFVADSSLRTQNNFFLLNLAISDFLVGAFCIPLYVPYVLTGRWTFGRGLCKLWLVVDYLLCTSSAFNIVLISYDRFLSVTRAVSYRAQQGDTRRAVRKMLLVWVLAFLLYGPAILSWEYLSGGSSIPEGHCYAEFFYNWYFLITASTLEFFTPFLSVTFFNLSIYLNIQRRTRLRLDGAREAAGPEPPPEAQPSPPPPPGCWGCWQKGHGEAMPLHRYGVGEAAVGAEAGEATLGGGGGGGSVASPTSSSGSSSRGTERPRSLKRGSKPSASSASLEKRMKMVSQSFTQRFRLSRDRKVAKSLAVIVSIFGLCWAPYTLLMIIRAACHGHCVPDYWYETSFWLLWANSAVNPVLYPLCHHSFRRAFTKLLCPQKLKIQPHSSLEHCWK
Endpoint: Ki (nM)

Would you please look over these solved cases?
1) CN(C)CCCn1nc(Cc2ccc(Cl)cc2)c2ccccc2c1=O	126
2) COc1ccc(Cc2nn(C[C@H]3CCCN3C)c(=O)c3ccccc23)cc1	79.4

I. CN(CCCCc1ccc(OCCCN2CCCCCC2)cc1)CCn1nc(Cc2ccc(Cl)cc2)c2ccccc2c1=O
II. CN1CCC[C@@H]1Cn1nc(CC2CCCCC2)c2ccccc2c1=O
Exam item: Pick the one with the larger Ki: I vs II Response format: the label of the selected entry.
Marked response: II
(II: 200 nM, I: 7.94 nM)
